Entry source: paper PMC9723946

Biological target: G3BP1 NTF2-like domain (1-139) F15/124W (human, UniProt Q13283 1-139, F15W | F124W)
Sequence (Q13283 1-139 F15W/F124W): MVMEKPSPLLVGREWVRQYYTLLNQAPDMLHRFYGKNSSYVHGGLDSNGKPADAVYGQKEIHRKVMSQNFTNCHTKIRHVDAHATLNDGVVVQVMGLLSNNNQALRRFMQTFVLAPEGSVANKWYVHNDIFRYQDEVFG
Test: fluorescence polarisation
Where no end group is shown, it is not given here. Ahx = NCCCCCC(=O)O
attribute measured: pKd
To interpret pKd, take it as minus log10 of a concentration measured in moles per litre.

Give the measured pKd of {fluorescein-Ahx}-YNFIQDSMLDFE [Caprin1-derived dodecamer reporter peptide F*-YNFIQDSMLDFE] .
4.84
